Source of measurements: patent US11149054B2

I'd appreciate it if you could supply pEC50 values for the items below.
target: GlunN1/GluN2A glutamate receptors (Homo sapiens (Human), UniProt Q05586+Q12879); assay: Whole-cell patch clamp of mammalian cells (Ionworks Barracuda), positive allosteric modulation, GluN1/GluN2A; assay type: cell-based
Sequence (Q12879 23-1464, other chains not shown): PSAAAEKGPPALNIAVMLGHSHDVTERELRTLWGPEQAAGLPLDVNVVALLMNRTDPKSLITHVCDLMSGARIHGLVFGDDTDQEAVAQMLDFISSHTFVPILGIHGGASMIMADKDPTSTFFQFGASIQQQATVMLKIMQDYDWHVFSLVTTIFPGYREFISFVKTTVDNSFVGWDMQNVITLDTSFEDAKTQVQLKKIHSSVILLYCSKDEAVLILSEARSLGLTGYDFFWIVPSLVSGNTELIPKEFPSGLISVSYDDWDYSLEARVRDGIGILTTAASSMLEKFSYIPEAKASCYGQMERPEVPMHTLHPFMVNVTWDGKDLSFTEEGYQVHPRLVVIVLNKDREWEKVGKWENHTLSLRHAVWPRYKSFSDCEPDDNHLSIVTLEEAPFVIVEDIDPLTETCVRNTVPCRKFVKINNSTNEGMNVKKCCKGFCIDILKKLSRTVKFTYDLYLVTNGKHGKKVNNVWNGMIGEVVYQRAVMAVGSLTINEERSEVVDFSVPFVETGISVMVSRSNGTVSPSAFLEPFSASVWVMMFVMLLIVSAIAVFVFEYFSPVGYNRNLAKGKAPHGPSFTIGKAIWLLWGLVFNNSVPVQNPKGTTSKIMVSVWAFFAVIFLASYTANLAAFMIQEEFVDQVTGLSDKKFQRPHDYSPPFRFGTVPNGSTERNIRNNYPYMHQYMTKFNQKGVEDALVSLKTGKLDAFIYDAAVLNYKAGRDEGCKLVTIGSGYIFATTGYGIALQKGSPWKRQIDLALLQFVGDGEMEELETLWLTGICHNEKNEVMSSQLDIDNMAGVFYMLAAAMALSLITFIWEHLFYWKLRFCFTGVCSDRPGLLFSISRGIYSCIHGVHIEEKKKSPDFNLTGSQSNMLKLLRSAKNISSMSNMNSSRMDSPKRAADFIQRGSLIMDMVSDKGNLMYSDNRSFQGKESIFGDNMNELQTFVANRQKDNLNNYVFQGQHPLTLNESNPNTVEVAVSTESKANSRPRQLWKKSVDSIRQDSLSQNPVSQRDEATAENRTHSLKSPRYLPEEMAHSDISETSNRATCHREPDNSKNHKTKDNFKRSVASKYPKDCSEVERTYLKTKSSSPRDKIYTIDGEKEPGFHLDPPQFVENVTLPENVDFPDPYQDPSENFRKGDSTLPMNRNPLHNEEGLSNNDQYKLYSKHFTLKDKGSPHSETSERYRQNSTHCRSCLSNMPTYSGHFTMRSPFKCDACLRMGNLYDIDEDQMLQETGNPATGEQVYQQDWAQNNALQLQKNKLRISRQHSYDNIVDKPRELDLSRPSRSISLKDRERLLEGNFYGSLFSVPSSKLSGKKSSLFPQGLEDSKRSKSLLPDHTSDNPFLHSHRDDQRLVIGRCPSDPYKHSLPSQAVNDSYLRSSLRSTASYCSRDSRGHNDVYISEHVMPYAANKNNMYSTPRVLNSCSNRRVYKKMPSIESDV
In textbook form, pEC50 equals minus log to base ten of the concentration in mol/L.

Task item: Which pEC50 is reported with GlunN1/GluN2A glutamate receptors (Homo sapiens (Human), UniProt Q05586+Q12879) for this entry: CC[C@]1(O)CC[C@@]2(C)C(=CC[C@H]3[C@@H]4CC[C@H]([C@H](C)CC[C@@H](O)c5cccnc5)[C@@]4(C)CC[C@@H]32)C1 ?
Reply: 5.88

Task item: Also C[C@H](CCC1(O)CCC(F)(F)CC1)[C@H]1CC[C@H]2[C@@H]3CC[C@H]4C[C@](O)(C(F)(F)F)CC[C@]4(C)[C@H]3CC[C@]12C , if possible.
Reply: 6.35

Task item: Also C[C@H](CC[C@@H](O)C1CCOCC1)[C@H]1CC[C@H]2[C@@H]3CC[C@H]4C[C@](O)(C(F)(F)F)CC[C@]4(C)[C@H]3CC[C@]12C , if possible.
Reply: 6.89

Task item: Also CC[C@]1(O)CC[C@H]2C(=CC[C@@H]3[C@@H]2CC[C@]2(C)[C@@H]([C@H](C)CC[C@H](O)C(C)(C)C)CC[C@@H]32)C1 , if possible.
Reply: 6.91

Task item: Also C[C@H](CCC(O)C(F)(F)F)[C@H]1CC[C@H]2[C@@H]3CC[C@H]4C[C@](O)(C(F)(F)F)CC[C@]4(C)[C@H]3CC[C@]12C (some centres unmarked) , if possible.
Reply: 6.53

Task item: Also C[C@H](CC[C@@H](O)C(F)(F)F)[C@H]1CC[C@H]2[C@@H]3CC=C4C[C@](O)(C(F)(F)F)CC[C@]4(C)[C@H]3CC[C@]12C , if possible.
Reply: 7.16

Task item: Also C[C@H](CCCO)[C@H]1CC[C@H]2[C@@H]3CC[C@H]4C[C@](O)(C(F)(F)F)CC[C@]4(C)[C@H]3CC[C@]12C , if possible.
Reply: 6.11

Task item: Also CC[C@]1(O)CC[C@H]2[C@@H](CC[C@@H]3[C@@H]2CC[C@]2(C)[C@@H]([C@H](C)CCCC(C)(C)O)CC[C@@H]32)C1 , if possible.
Reply: 6.44

Task item: Also C[C@H](CCC1(O)CCC2(CC1)CC2)[C@H]1CC[C@H]2[C@@H]3CC[C@H]4C[C@](O)(C(F)(F)F)CC[C@]4(C)[C@H]3CC[C@]12C , if possible.
Reply: 6.45

Task item: Also C[C@H](CC[C@](C)(O)C(F)(F)F)[C@H]1CC[C@H]2[C@@H]3CC=C4C[C@](O)(C(F)(F)F)CC[C@]4(C)[C@H]3CC[C@]12C , if possible.
Reply: 7.21

Task item: Also C[C@H](CCCC1(O)CC1)[C@H]1CC[C@H]2[C@@H]3CC[C@H]4C[C@](O)(C(F)(F)F)CC[C@]4(C)[C@H]3CC[C@]12C , if possible.
Reply: 7.04

Task item: Also C[C@H](CC[C@@H](O)C1CCC1)[C@H]1CC[C@H]2[C@@H]3CC[C@H]4C[C@](O)(C(F)(F)F)CC[C@]4(C)[C@H]3CC[C@]12C , if possible.
Reply: 6.46

Task item: Also CC[C@]1(O)CC[C@H]2C(=CC[C@@H]3[C@@H]2CC[C@]2(C)[C@@H]([C@H](C)CCC(O)C(C)(C)C)CC[C@@H]32)C1 (some centres unmarked) , if possible.
Reply: 7.06

Task item: Also CC[C@@H](O)CC[C@@H](C)[C@H]1CC[C@H]2[C@@H]3CC=C4C[C@](O)(CC)CC[C@@H]4[C@H]3CC[C@]12C , if possible.
Reply: 6.48

Task item: Also COC[C@H]1CC[C@](O)(CC[C@@H](C)[C@H]2CC[C@H]3[C@@H]4CC[C@H]5C[C@](O)(C(F)(F)F)CC[C@]5(C)[C@H]4CC[C@]23C)CC1 , if possible.
Reply: 6.37

Task item: Also CC[C@]1(O)CC[C@@]2(C)C(=CC[C@H]3[C@@H]4CC[C@H]([C@H](C)CC[C@H](O)c5ccc(C#N)cc5)[C@@]4(C)CC[C@@H]32)C1 (single isomer, unassigned) , if possible.
Reply: 6.44

Task item: Also CC[C@]1(O)CC[C@H]2C(=CC[C@@H]3[C@@H]2CC[C@]2(C)[C@@H]([C@H](C)CCC4(O)CCC(C)(C)CC4)CC[C@@H]32)C1 , if possible.
Reply: 5.80

Task item: Also CC[C@]1(O)CC[C@H]2C(=CC[C@@H]3[C@@H]2CC[C@]2(C)[C@@H]([C@H](C)CC[C@@H](O)C(C)C)CC[C@@H]32)C1 , if possible.
Reply: 6.99
